- Measurement description: RO4929097 plasma pharmacokinetics
- Type: in vivo, human
- Measurement context: human, plasma, oral, 10 mg, Vz/F, 10 mg dose, Cycle 1 Day 15, N = 7, mean ± SD

Compound: CC(C)(C(=O)NCC(F)(F)C(F)(F)F)C(=O)N[C@@H]1C(=O)Nc2ccccc2-c2ccccc21 [RO4929097]
Vd/F (L): 76.8

---

- Measurement description: RO4929097 plasma pharmacokinetics
- Assay type: in vivo, human
- Measurement context: human, plasma, oral, 10 mg, Half life, 10 mg dose, Cycle 1 Day 1, N = 8, mean ± SD

Entry smiles: CC(C)(C(=O)NCC(F)(F)C(F)(F)F)C(=O)N[C@@H]1C(=O)Nc2ccccc2-c2ccccc21
half-life (min): 882

Source of measurements: paper PMC7955776
